studyTarget: HRas^G12V (Homo sapiens (Human), UniProt P01112, G12V)
Sequence (P01112 1-166 G12V): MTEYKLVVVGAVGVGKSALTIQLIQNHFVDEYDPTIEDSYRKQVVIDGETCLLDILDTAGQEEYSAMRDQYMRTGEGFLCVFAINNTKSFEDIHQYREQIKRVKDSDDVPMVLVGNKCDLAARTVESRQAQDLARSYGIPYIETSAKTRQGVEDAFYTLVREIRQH
testDetails: 19F T2-CPMG NMR score
Format: binding
Doc: threshold 5 (exclusive). Items with 19F T2-CPMG Score beneath it return yes; others return no.

For orientation, consider the following solved cases.
CN1CCN(C(=O)Cc2c[nH]c3cc(F)ccc23)[C@@H](C(=O)O)C1 : no
O=C(NCCc1c[nH]c2cc(F)ccc12)[C@@H]1CCCO1 : no
CC1CN(C(=O)Cc2cc3ccc(F)cc3[nH]2)C1 : yes
O=C(Cc1c[nH]c2cc(F)ccc12)N1CCCC(O)C1 (stereo not drawn) : no
CCN(CC)CC(=O)NCCc1c[nH]c2cc(F)ccc12 : yes
O=C(C1CCC(O)CC1)N1CCC(c2c[nH]c3cc(F)ccc23)CC1 (stereo not drawn) : no
O=C(Cc1c[nH]c2cc(F)ccc12)NCCc1ccc(F)cc1 : yes
CC(c1ccncc1)N(C)C(=O)Cc1c[nH]c2cc(F)ccc12 (stereo not drawn) : no

Now, please, on to the next compound.
Task: Does the reported 19F T2-CPMG Score of "O=C(NCCc1c[nH]c2cc(F)ccc12)c1ccc(F)cc1" stay below 5?
Output: no

###

studyTarget: HRas^G12V (Homo sapiens (Human), UniProt P01112, G12V)
testDetails: 19F T2-CPMG NMR score
Type: binding
Classify as follows. Reported 19F T2-CPMG Score greater than or equal to 6: 1. Reported 19F T2-CPMG Score below: 0.

For orientation, consider the following solved cases.
CCOC(=O)CNC(=O)Cc1c[nH]c2cc(F)ccc12 : 0
O=C(O)CN1CCC(NC(=O)Cc2c[nH]c3cc(F)ccc23)CC1 : 0
O=C(Cc1c[nH]c2cc(F)ccc12)N[C@H]1CCOC1 : 0
O=C(CN1CCCCC1)c1c[nH]c2cc(F)ccc12 : 1
O=C(C1CCCNC1)N1CCC(c2c[nH]c3cc(F)ccc23)C1 (stereo not drawn) : 1

Task: Quick check, 19F T2-CPMG Score >= 6? "CC(=O)C1CN(C(=O)Cc2c[nH]c3cc(F)ccc23)C1"
Output: 1

Task: Quick check, 19F T2-CPMG Score >= 6? "CN(C)CC(=O)Nc1cccc(NC(=O)Cc2c[nH]c3cc(Cl)cc(F)c23)c1"
Output: 0

Task: Quick check, 19F T2-CPMG Score >= 6? "Fc1ccc2c(C3=CCNCC3)c[nH]c2c1"
Output: 0

###

studyTarget: HRas^G12V (Homo sapiens (Human), UniProt P01112, G12V)
testDetails: 19F T2-CPMG NMR score
Assay type: binding
Classify as follows. Reported 19F T2-CPMG Score greater than or equal to 6: Condition met. Reported 19F T2-CPMG Score below: Condition not met.

For orientation, consider the following solved cases.
O=C1CCCN(C(=O)Cc2c[nH]c3cc(F)ccc23)C1 : Condition met
CC(=O)N1CCC[C@H](NC(=O)Cc2c[nH]c3cc(F)ccc23)C1 : Condition not met
COC(=O)[C@H]1CN(C(=O)Cc2c[nH]c3cc(F)ccc23)CCN1C : Condition not met
O=C(NCCc1c[nH]c2cc(F)ccc12)[C@H]1CCCO1 : Condition met
CC(=O)N1CCC[C@H]1C(=O)NCCc1c[nH]c2cc(F)ccc12 : Condition not met
O=C(O)CC(c1ccccc1F)c1c[nH]c2cc(F)ccc12 (stereo not drawn) [Compound 11043] : Condition met

Task: Quick check, 19F T2-CPMG Score >= 6? "O=C(Cc1c[nH]c2cc(F)ccc12)N1CCCCC1"
Output: Condition met

Task: Quick check, 19F T2-CPMG Score >= 6? "Cc1[nH]c2cc(F)ccc2c1CC(=O)N1CCC1"
Output: Condition not met

Task: Quick check, 19F T2-CPMG Score >= 6? CCOC(=O)C(Cc1c[nH]cn1)NC(=O)Cc1c[nH]c2cc(F)ccc12 (stereo not drawn)
Output: Condition not met

Task: Quick check, 19F T2-CPMG Score >= 6? CN(C)Cc1c[nH]c2cc(F)ccc12 [FS-1255, reference compound]
Output: Condition not met

Task: Quick check, 19F T2-CPMG Score >= 6? CC1CN(C)CCC1NC(=O)Cc1c[nH]c2cc(F)ccc12 (stereo not drawn)
Output: Condition met

Task: Quick check, 19F T2-CPMG Score >= 6? "O=C(c1ccccc1)N1CCC(c2c[nH]c3cc(F)ccc23)CC1"
Output: Condition not met

Task: Quick check, 19F T2-CPMG Score >= 6? "O=C(O)C[C@@H]1CN(C(=O)Cc2c[nH]c3cc(F)ccc23)CCO1"
Output: Condition not met

Task: Quick check, 19F T2-CPMG Score >= 6? CCOC(=O)C(CC(C)C)NC(=O)Cc1c[nH]c2cc(F)ccc12 (stereo not drawn)
Output: Condition not met

Task: Quick check, 19F T2-CPMG Score >= 6? "O=C(O)[C@H]1CCCCN1C(=O)Cc1c[nH]c2cc(F)ccc12"
Output: Condition met

###

studyTarget: HRas^G12V (Homo sapiens (Human), UniProt P01112, G12V)
testDetails: 19F DLB (ligand-observed 19F NMR) score
Format: binding
Parameters: scale not given here
# 19F DLB Score values compiled below

O=C(Cc1c[nH]c2cc(F)ccc12)NCCc1ccc(F)cc1 : 1.13
CC(=O)N[C@H]1CCCN(C(=O)Cc2c[nH]c3cc(F)ccc23)C1 : 1.93

Task: Record lookup: for HRas^G12V (Homo sapiens (Human), UniProt P01112, G12V), what 19F DLB Score belongs to "CC(=O)C1CN(C(=O)Cc2c[nH]c3cc(F)ccc23)C1" ?
Output: 1.98

Task: Record lookup: for HRas^G12V (Homo sapiens (Human), UniProt P01112, G12V), what 19F DLB Score belongs to COC(=O)C1CCN1C(=O)Cc1c[nH]c2cc(F)ccc12 (centres unmarked) ?
Output: 2.24

###

# 19F DLB Score values compiled below
studyTarget: KRAS^G12D-GDP (Homo sapiens (Human), UniProt P01116, G12D)
Sequence (P01116-2 other isoform, or with tags, fused parts or gaps G12D): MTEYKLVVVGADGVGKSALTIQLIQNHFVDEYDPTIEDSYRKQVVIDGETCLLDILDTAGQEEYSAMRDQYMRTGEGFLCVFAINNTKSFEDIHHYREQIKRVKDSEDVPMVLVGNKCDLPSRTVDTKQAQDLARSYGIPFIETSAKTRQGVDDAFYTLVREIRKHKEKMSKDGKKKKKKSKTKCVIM
testDetails: 19F DLB score, KRAS^G12D-GDP
Type: binding
Design: scale not given here
Would you mind answering with just the numeric figure?

Here's what some known entries look like.
CN(C)S(=O)(=O)NCCc1c[nH]c2cc(F)ccc12 [Compound 10004, reference compound] : 2.06
CC(C(=O)N1CCC1)c1c[nH]c2cc(F)ccc12 (stereo not drawn) [Compound 10066] : 2.22

Shift focus to the following entry.
Task: What value of measured 19F DLB Score is listed for CC(=O)N1CCN(C(=O)Cc2c[nH]c3cc(F)ccc23)CC1 [Compound 10040] ?
Output: 1.63

###

studyTarget: HRas^G12V (Homo sapiens (Human), UniProt P01112, G12V)
testDetails: Dissociation constant by NMR (1H/15N Fast-HSQC, 1H 1D protein-observed)
Format: binding
conditionSummary: HRas^G12V; read-out: NMR Kd
readout: log10 Kd (log10 of the value in mM)
For clarity, the numbers are log10 values of Kd expressed in mM.

Here's what some known entries look like.
CC(CCO)NC(=O)Cc1c[nH]c2cc(F)ccc12 (stereo not drawn) : 1.00
COCCNC(=O)Cc1c[nH]c2cc(F)ccc12 : 0.78
CC(=O)Nc1cccc(NC(=O)Cc2c[nH]c3cc(F)ccc23)c1 : 0.37
NC(=O)C1CN(C(=O)Cc2c[nH]c3cc(F)ccc23)C1 : 1.05

Shift focus to the following entry.
Task: What value of measured log10 Kd is listed for "CN(C)CCOc1cccc(NC(=O)Cc2c[nH]c3cc(F)ccc23)c1" ?
Output: -1.44

###

studyTarget: HRas^G12V (Homo sapiens (Human), UniProt P01112, G12V)
testDetails: 19F DLB (ligand-observed 19F NMR) score
Format: binding
Parameters: scale not given here
Classify as follows. Reported 19F DLB Score greater than or equal to 2: met. Reported 19F DLB Score below: not met.

For orientation, consider the following solved cases.
CN(C)CCOc1cccc(NC(=O)Cc2c[nH]c3cc(F)ccc23)c1 : met
O=C(Cc1c[nH]c2cc(F)ccc12)N1CCOC(c2ccccc2)C1 (stereo not drawn) : not met
CCOC(=O)Cc1c[nH]c2cc(F)ccc12 [Compound 11003, ethyl 2-(6-fluoro-1H-indol-3-yl) acetate] : met
CCOC(=O)C(CO)NC(=O)Cc1c[nH]c2cc(F)ccc12 (stereo not drawn) : not met
CN1CCN(C(=O)Cc2c[nH]c3cc(F)ccc23)[C@@H](C(=O)O)C1 : not met

Task: Quick check, 19F DLB Score >= 2? "O=C(O)[C@@H]1CCCCN1C(=O)Cc1c[nH]c2cc(F)ccc12"
Output: not met

Task: Quick check, 19F DLB Score >= 2? COC(=O)C1CN(C)CCC1NC(=O)Cc1c[nH]c2cc(F)ccc12 (stereo not drawn)
Output: not met

###

studyTarget: HRas^G12V (Homo sapiens (Human), UniProt P01112, G12V)
testDetails: 19F T2-CPMG NMR score
Format: binding
readout: 19F T2-CPMG Score
Would you mind answering with just the numeric figure?

Here's what some known entries look like.
O=C(Cc1c[nH]c2cc(F)ccc12)N1CCN(C(=O)C2CCCO2)CC1 (centres unmarked) : 6.11
CC(=O)Nc1cccc(NC(=O)Cc2c[nH]c3cc(F)ccc23)c1 : 38.3
CC(=O)N[C@H]1CCN(C(=O)Cc2c[nH]c3cc(F)ccc23)C1 : 3.92
CC1(C)OC(=O)C(C(c2ccccc2F)c2c[nH]c3cc(F)ccc23)C(=O)O1 (centres unmarked) [Compound 11041] : 3.61
CC(=O)NC[C@@H]1CN(C(=O)Cc2c[nH]c3cc(F)ccc23)CCO1 : 5.59
O=C(Cc1c[nH]c2cc(F)ccc12)N1CCO[C@@H](CO)C1 : 19.87

Task: What value of measured 19F T2-CPMG Score is listed for "CCOC(=O)c1ccc(NC(=O)Cc2c[nH]c3cc(F)ccc23)c(C)c1" ?
Output: −8.2

Task: What value of measured 19F T2-CPMG Score is listed for "CCOC(=O)CC1CCN(C(=O)Cc2c[nH]c3cc(F)ccc23)CC1" ?
Output: 12.1

Task: What value of measured 19F T2-CPMG Score is listed for COC(C)C1CN(C(=O)Cc2c[nH]c3cc(F)ccc23)C1 (centres unmarked) ?
Output: 12.49

Task: What value of measured 19F T2-CPMG Score is listed for "CC(C)(C)OC(=O)n1cc(CC#N)c2ccc(F)cc21" ?
Output: 1.74

Task: What value of measured 19F T2-CPMG Score is listed for "O=C1CCN(C(=O)Cc2c[nH]c3cc(F)ccc23)CC1" ?
Output: 13.41

Task: What value of measured 19F T2-CPMG Score is listed for CN1CCN(C(=O)Cc2c[nH]c3cc(F)ccc23)C[C@@H]1C(=O)O [Compound 10173] ?
Output: 3.79
